Data provenance: paper PMC7060258

- system-tested: T1, human neutrophil elastase (human, UniProt P08246 30-267)
- T1 sequence (looked up): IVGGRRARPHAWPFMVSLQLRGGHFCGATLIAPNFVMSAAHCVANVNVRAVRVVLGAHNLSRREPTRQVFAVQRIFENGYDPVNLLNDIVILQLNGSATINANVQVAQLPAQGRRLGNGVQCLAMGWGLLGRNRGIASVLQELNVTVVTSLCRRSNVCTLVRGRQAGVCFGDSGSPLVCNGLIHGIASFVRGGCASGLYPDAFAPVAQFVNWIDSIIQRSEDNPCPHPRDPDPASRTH
- assay-protocol: SPR; Biacore 3000; peptides covalently immobilised on a CM4 chip (970 RU rHCIQ2c1, 460 RU rHCIQ4c7); proteinases 1 nM to 5 μM flowed over; 25 °C; HBS: 0.15 M NaCl, 0.01 M HEPES, pH 7.4
- experimental-parameters: both partners purified
pKd: −log10 of the molar value. No end group written: not given here.
endpoint-label: pKd

>>> meas_value("recombinant HCIQ4c7 Kunitz-type peptide from Heteractis crispa (not fully specified; cysteine pairing not given here) IQGNICSEPKKVGRCRESFPRFYFDSETGKCTPFIYGGCGGNGNNFETLHACRAICRA")
6.02
>>> meas_value("recombinant HCIQ2c1 Kunitz-type peptide from Heteractis crispa (peptide, UniProt A0A6B7FBD3 28-85, looked up, HCIQ2c1, Kunitz-type peptide of the sea anemone Heteractis crispa; mature peptide of 58 aa (precursor 85 aa: signal peptide 22 aa, propeptide 5 aa ending in Lys-Arg at 26-27, mature peptide 58 aa); begins with Ile-Gln; measured mass 6330 Da; numbers count on: the mature protein; also called rHCIQ2c1; source: E. coli BL21 (DE3), thioredoxin fusion, purified (Ni-NTA, CNBr cleavage, RP-HPLC)) IQGNICSEPKKVGRCRGSFPRFYFDSETGKCTPFIYGGCGGNGNNFETLHACRAICRA")
6.90
